The origin of these recorded values is ChEMBL document CHEMBL2203000.

- assayedTarget: Platelet-derived growth factor receptor beta (Homo sapiens, UniProt P09619)
- Sequence (P09619 whole entry): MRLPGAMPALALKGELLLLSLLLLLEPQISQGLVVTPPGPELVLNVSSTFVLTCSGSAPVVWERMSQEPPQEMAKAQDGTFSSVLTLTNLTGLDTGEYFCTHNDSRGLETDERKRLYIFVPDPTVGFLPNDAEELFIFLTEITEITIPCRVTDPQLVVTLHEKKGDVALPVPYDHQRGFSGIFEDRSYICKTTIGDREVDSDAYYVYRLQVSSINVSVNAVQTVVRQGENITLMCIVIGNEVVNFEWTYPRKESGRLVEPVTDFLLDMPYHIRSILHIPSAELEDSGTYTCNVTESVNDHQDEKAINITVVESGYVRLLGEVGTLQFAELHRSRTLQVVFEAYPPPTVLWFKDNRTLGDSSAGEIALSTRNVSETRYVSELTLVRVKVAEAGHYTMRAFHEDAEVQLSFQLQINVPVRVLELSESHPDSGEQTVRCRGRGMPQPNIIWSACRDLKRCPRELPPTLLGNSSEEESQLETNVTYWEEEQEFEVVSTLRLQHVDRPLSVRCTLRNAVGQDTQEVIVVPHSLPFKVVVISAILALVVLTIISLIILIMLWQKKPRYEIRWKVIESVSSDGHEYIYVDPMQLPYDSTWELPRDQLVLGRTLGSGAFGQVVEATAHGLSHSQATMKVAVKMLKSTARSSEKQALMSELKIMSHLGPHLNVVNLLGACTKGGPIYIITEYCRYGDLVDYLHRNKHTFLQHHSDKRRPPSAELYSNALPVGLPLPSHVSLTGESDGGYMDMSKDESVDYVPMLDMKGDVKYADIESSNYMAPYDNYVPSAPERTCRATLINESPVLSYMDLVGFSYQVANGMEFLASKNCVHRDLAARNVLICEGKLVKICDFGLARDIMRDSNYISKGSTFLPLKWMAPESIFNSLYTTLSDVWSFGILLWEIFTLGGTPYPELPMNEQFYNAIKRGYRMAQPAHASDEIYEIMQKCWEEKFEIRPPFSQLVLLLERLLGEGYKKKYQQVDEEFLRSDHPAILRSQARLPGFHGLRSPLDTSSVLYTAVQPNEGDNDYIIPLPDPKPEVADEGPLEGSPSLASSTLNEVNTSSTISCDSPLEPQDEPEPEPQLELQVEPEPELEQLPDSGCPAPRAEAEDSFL
recordedEndpoint: Kd
Lab note: write values as number then unit, every time.

stdin: Consider the compound shown here: CCN1C(C)(C)CC(Oc2ccc(C(=O)Nc3ccc(NC(=O)Nc4cc(C(C)(C)C)on4)cc3)nc2)CC1(C)C What is its recorded Kd?
stdout: 1 nM

====

- assayedTarget: Macrophage colony-stimulating factor 1 receptor (Homo sapiens, UniProt P07333)
- Sequence (P07333 whole entry): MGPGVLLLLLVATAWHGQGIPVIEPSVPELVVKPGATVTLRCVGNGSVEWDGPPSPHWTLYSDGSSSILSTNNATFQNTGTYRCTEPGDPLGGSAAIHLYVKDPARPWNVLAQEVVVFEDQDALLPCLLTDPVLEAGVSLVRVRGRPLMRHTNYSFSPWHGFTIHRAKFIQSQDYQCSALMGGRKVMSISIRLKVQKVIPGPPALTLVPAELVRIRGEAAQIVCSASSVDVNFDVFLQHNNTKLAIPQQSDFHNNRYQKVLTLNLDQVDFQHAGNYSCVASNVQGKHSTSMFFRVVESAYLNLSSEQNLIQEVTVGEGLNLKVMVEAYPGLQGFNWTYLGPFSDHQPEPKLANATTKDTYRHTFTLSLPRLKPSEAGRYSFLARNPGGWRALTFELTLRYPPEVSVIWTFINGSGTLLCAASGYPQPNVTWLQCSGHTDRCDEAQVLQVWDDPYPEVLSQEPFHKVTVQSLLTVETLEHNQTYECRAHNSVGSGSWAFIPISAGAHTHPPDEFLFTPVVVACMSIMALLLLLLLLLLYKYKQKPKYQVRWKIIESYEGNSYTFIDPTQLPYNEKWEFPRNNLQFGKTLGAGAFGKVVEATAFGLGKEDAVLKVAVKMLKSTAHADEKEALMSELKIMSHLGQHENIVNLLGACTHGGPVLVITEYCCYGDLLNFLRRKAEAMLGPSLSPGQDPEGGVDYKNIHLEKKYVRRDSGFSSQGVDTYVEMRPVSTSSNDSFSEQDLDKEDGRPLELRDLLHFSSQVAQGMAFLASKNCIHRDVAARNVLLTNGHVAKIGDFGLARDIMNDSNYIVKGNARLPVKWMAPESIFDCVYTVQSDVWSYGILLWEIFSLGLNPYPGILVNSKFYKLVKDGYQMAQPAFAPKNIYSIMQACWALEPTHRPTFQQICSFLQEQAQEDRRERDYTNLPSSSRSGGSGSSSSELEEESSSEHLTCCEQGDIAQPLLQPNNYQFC
- assayProcedure: Inhibition of M-CSF-induced […] -fussed CSF1R phosphorylation expressed in HEK293 cells after 2 hrs by sandwich ELISA
recordedEndpoint: IC50
Lab note: write values as number then unit, every time.

stdin: Consider the compound shown here: CCN1C(C)(C)CC(Oc2ccc(C(=O)Nc3ccc(NC(=O)Nc4cc(C(C)(C)C)on4)cc3)nc2)CC1(C)C What is its recorded IC50?
stdout: 10.5 nM
